Values were extracted from patent US6329389A.

# studyTarget: human somatostatin receptor protein subtype 4 (hSSTR4)
# runDescription: Binding inhibition of 125I-somatostatin-14, IC50, SSTR4 membrane fraction
# measurementSetup: 125I-somatostatin-14, human SSTR4 CHO cell membrane fraction, 25° C., 60 minutes
endpointName: IC50 (nM)
Answers are plain numbers, in nM.

Lab note: measured IC50 of O=C(CCc1nc(-c2cc3ccccc3o2)no1)N1CC(CN2CCCC2)Cc2ccccc21 (stereo not shown) [Example 56] was 7

---

Give measured pIC50 for each item. Keep answers brief.
# studyTarget: human somatostatin receptor protein subtype 3 (SSTR3) (Homo sapiens, UniProt P32745)
# Sequence (P32745 whole entry): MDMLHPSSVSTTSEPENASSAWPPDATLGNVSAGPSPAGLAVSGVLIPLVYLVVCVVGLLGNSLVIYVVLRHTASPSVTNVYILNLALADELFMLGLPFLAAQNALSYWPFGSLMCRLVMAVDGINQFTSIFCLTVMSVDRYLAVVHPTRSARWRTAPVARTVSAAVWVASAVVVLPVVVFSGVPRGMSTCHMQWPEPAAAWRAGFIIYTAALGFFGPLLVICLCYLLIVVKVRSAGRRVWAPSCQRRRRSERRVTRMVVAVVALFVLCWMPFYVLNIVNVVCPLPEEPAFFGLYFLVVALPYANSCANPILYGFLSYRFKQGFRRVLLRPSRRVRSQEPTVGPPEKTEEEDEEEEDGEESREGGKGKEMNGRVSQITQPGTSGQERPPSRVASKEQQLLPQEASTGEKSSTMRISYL
# runDescription: Binding inhibition of 125I-somatostatin-14, IC50, SSTR3 membrane fraction
# measurementSetup: 125I-somatostatin-14, CHO cell membrane fraction, 25° C., 60 minutes
One number for each entry, as −log10 of the molar value.

Please look at the items below and tell me pIC50 for each one, in order.
1. CN(C)CC1Cc2ccccc2N(C(=O)[C@@H](Cc2c[nH]c3ccccc23)NC(=O)N2CCC(n3c(=O)[nH]c4ccccc43)CC2)C1 (some centres unmarked) [Example 89]
2. CN(C)CC1Cc2ccccc2N(C(=O)[C@@H](Cc2c[nH]c3ccccc23)NC(=O)N2CCN(c3ccccc3)CC2)C1 (some centres unmarked) [Example 88]

1. 8.70
2. 9.10
